Cited source for all entries: ChEMBL document CHEMBL1201862

System: MDA-N
Test protocol: NCI tumour cell line growth inhibition, 48 h
The source made the active and inactive calls. No stated cut-off is given here; in the data, active = GI50 up to about 1.1 µM and inactive = higher. Where a SMILES comes first, the peptide text is derived from it. [ ]: non-standard residue; d: D form. pGlu = O=C1CC[CH](C(=O)O)N1
Assay metric: GI50

[
  {
    "Compound": "COc1ccc(OC2OC(COC(c3ccccc3)(c3ccc(OC)cc3)c3ccc(OC)cc3)C(O)C(O)C2O)cc1 (centres undefined)",
    "Assay result": "4.37 µM (inactive)"
  },
  {
    "Compound": "COC(=O)C1=C(C(=O)OC)C2(C)CCC(=O)C1O2 (centres undefined)",
    "Assay result": "> 10 µM (inactive)"
  },
  {
    "Compound": "Nc1cccc(Nc2nc3ccccc3nc2NS(=O)(=O)c2ccccc2)c1",
    "Assay result": "33.4 µM (inactive)"
  },
  {
    "Compound": "NCCCCNCCCN1CCOC1=O",
    "Assay result": "> 100 µM (inactive)"
  },
  {
    "Compound": "Cc1ccc(/N=N/c2c(O)ccc3ccccc23)c(C)c1",
    "Assay result": "> 100 µM (inactive)"
  },
  {
    "Compound": "C[C@]12CCC(=O)C(O)=C1CC[C@@H]1[C@@H]2CC[C@]2(C)C(=O)CC[C@@H]12 [FORMESTANE]",
    "Assay result": "> 100 µM (inactive)"
  },
  {
    "Compound": "CCOC(=O)Cc1nc2sc(S(N)(=O)=O)nn2c1Br",
    "Assay result": "35.1 µM (inactive)"
  },
  {
    "Compound": "O=Cc1cc2c(o1)C(=O)c1ccccc1C2=O",
    "Assay result": "0.192 µM (active)"
  },
  {
    "Compound": "CCC(C)NC(=S)N/N=C(\\C)c1ccccn1 (centres undefined)",
    "Assay result": "0.57 µM (active)"
  },
  {
    "Compound": "CN1CCN(C(=S)N(C)C(=O)c2cccs2)CC1",
    "Assay result": "> 100 µM (inactive)"
  },
  {
    "Compound": "COc1cc(/C=C/C(=O)c2c([O-])on[n+]2-c2ccccc2)ccc1O",
    "Assay result": "2.32 µM (inactive)"
  },
  {
    "Compound": "Brc1ccc(-c2nc(-c3ccc(Br)cc3)n(-c3ccccc3)n2)cc1",
    "Assay result": "> 100 µM (inactive)"
  },
  {
    "Compound": "O=C(OCC(OC(=O)c1ccccc1)C1CC(C(O)C2CCCCC2)C(=O)O1)c1ccccc1 (centres undefined)",
    "Assay result": "> 100 µM (inactive)"
  },
  {
    "Compound": "N#Cc1nc(CN2C(=O)c3ccccc3C2=O)oc1N",
    "Assay result": "> 100 µM (inactive)"
  },
  {
    "Compound": "COc1cc(C(=O)O[C@@H]2[C@@H](OC(=O)c3cc(OC)c(OC)c(OC)c3)[C@@H](OC)O[C@@H]3CO[C@@H](c4ccccc4)O[C@@H]23)cc(OC)c1OC",
    "Assay result": "> 100 µM (inactive)"
  },
  {
    "Compound": "CC(NC(=O)C1CCC(=O)N1)C(=O)N1CCCC1C(N)=O (stereo not drawn) ([pGlu]-Ala-Pro-NH2; configuration not given here)",
    "Assay result": "> 100 µM (inactive)"
  },
  {
    "Compound": "Cc1ccccc1NC(=O)C(=O)Cc1cnc2ccccc2n1",
    "Assay result": "> 100 µM (inactive)"
  },
  {
    "Compound": "CCCCCCCCCCCCC(=O)OC(c1cnco1)c1nc(C(O)CC(O)C(O)C(C)O)co1 (centres undefined)",
    "Assay result": "1.95 µM (inactive)"
  },
  {
    "Compound": "CCOC(=O)CC(=O)CSc1c(-c2ccccc2)c(=O)n(-c2ccccc2)c(=S)n1-c1ccccc1",
    "Assay result": "> 100 µM (inactive)"
  },
  {
    "Compound": "COc1ccc(C(=O)N/N=C2\\C(=O)c3c(C)cc(C)cc3CC2(C)C)cc1",
    "Assay result": "19.3 µM (inactive)"
  },
  {
    "Compound": "COc1ccc(S(=O)(=O)Nc2ccc(-c3csc(N4C(=O)/C(=C/C=C\\c5ccccc5)N=C4c4ccccc4)n3)cc2)cc1Cl",
    "Assay result": "31.3 µM (inactive)"
  },
  {
    "Compound": "COC(=O)C1=C(O)C(C(=O)OC)[C@@]2(O)[C@@H](C(=O)OC)C(c3ccc(OC(=O)/C(=C/c4ccc(Cl)cc4)c4ccc(Cl)cc4)cc3)C[C@@H]1[C@@H]2C(=O)OC (some centres undefined)",
    "Assay result": "17.5 µM (inactive)"
  },
  {
    "Compound": "COc1cc2oc(=O)ccc2cc1C1OC(=O)C2OC21C (centres undefined)",
    "Assay result": "> 100 µM (inactive)"
  },
  {
    "Compound": "N=C(N)N/N=C/c1ccc(O)c(C(=O)O)c1",
    "Assay result": "> 100 µM (inactive)"
  },
  {
    "Compound": "CC(=O)Nc1ccc(C2SCc3nc4ccccc4n32)cc1 (centres undefined)",
    "Assay result": "> 100 µM (inactive)"
  },
  {
    "Compound": "O=C(O)CCC(=O)C(=O)O [ALPHA-KETOGLUTARIC ACID]",
    "Assay result": "> 100 µM (inactive)"
  },
  {
    "Compound": "CCCCCC(=O)CCCCCCCC(O)CC(=O)OCC (centres undefined)",
    "Assay result": "> 100 µM (inactive)"
  },
  {
    "Compound": "CCc1cccc(CC)c1Nc1nc(-c2ccccc2-c2ccccc2)cs1",
    "Assay result": "50.8 µM (inactive)"
  },
  {
    "Compound": "CNC(=O)OCc1c(COC(=O)NC)c(-c2ccc(Cl)c(Cl)c2)n2c1SCC2",
    "Assay result": "18.5 µM (inactive)"
  },
  {
    "Compound": "C=C(C)C1CC2=C(O1)C(=O)c1cccc(O)c1C2=O (centres undefined)",
    "Assay result": "0.064 µM (active)"
  },
  {
    "Compound": "OCC(CCc1ccccc1I)C1=CCC2(CC1)OCCO2 (centres undefined)",
    "Assay result": "18.2 µM (inactive)"
  },
  {
    "Compound": "Cc1ccc(/C=N/Nc2ccc3ccccc3n2)s1",
    "Assay result": "13.4 µM (inactive)"
  },
  {
    "Compound": "CCN(CC)CCn1ncc2c(N)ncnc21",
    "Assay result": "> 100 µM (inactive)"
  },
  {
    "Compound": "c1cc2c(cc1C(N1CCNCC1)N1CCNCC1)OCO2",
    "Assay result": "> 100 µM (inactive)"
  },
  {
    "Compound": "N#CC1=C(C#N)/C(=C(\\C#N)C(C#N)C#N)N=C1N",
    "Assay result": "15.4 µM (inactive)"
  },
  {
    "Compound": "CC(=O)C(C(=O)C(C)(C)C)C(=O)C(C)(C)C",
    "Assay result": "> 100 µM (inactive)"
  },
  {
    "Compound": "Clc1nc(NCCc2ccccc2)c2ncn(-c3ccccc3)c2n1",
    "Assay result": "18.5 µM (inactive)"
  },
  {
    "Compound": "COC(=O)c1c(O)ccc2c1c1c(n2Cc2ccccc2OC)C(=O)c2ccccc2C1=O",
    "Assay result": "13.3 µM (inactive)"
  },
  {
    "Compound": "CC1OC(OC2C(O)COC(OC3C(C)OC(OC4C(OC(=O)[C@]56CCC(C)(C)C[C@@H]5C5=CCC7[C@@]8(C)C[C@H](O)[C@H](OC9OC(CO)C(O)C(OC%10OC(CO)C(O)C(O)C%10O)C9O)[C@@](C)(CO)[C@@H]8CC[C@@]7(C)[C@]5(C)CC6)OCC(O)C4O)C(O)C3OC3OCC(O)(CO)C3O)C2O)C(O)C(O)C1O (some centres undefined)",
    "Assay result": "10.2 µM (inactive)"
  }
]
